Quick reference for pIC50 among some compounds
- Experimental System: Proteasome Macropain subunit MB1 (Homo sapiens, UniProt P28074)
- Sequence (P28074 whole entry): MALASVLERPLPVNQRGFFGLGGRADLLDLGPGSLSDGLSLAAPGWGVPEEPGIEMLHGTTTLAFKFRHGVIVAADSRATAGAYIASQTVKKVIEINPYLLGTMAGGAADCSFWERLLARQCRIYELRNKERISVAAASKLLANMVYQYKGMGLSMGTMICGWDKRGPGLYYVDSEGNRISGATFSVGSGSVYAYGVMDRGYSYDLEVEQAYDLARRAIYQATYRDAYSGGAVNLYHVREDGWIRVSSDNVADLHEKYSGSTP
- Run Description: Inhibition of 20S proteasome beta5 subunit in human A549 cells using Suc-LLVY-luciferin substrate preincubated for 2 hrs followed by substrate addition and measured after 30 mins by luminometric analysis
- Assay type: cell-based
The meaning of pIC50 here: minus log10 of the concentration in molar units.

Past entries and their recorded results:
- Structure String: "O=C(Cn1cccn1)N[C@@H](Cc1coc2ccccc12)B(O)O"
  Experimental System: "Proteasome Macropain subunit MB1 (Homo sapiens, UniProt P28074)"
  Value: 6.05
- Structure String: "O=C(N[C@@H](Cc1coc2ccccc12)B(O)O)[C@H]1CCCO1"
  Experimental System: "Proteasome Macropain subunit MB1 (Homo sapiens, UniProt P28074)"
  Value: 6.09
- Structure String: "O=C(Cc1ncccn1)N[C@@H](Cc1coc2ccccc12)B(O)O"
  Experimental System: "Proteasome Macropain subunit MB1 (Homo sapiens, UniProt P28074)"
  Value: 6.69

Looking up `COCCC(=O)N[C@@H](Cc1coc2ccccc12)B(O)O` , I found its pIC50 recorded as 6.62

---

- Run Description: Cytotoxicity against Wistar Han rat hepatocytes assessed as depletion of ATP content incubated for 48 to 72 hrs by CellTiter-Glo luminescent assay
- Type: toxicity, cell-based, Hepatocyte
Measurement Name: pIC50
The meaning of pIC50 here: minus log10 of the concentration in molar units.

Looking up `O=C(N[C@@H](Cc1coc2ccccc12)B(O)O)[C@@H]1C[C@H]2CC[C@@H]1O2` , I found its pIC50 recorded as 4.19

---

- Run Description: Oral bioavailability in mouse at 10 mg/kg
- Format: ADME, organism-based
- Condition Description: in vivo
Measurement Name: bioavailability (%)
Entry rule: numbers only, all in %.

Looking up `O=C(N[C@@H](Cc1coc2ccccc12)B(O)O)[C@@H]1C[C@H]2CC[C@@H]1O2` , I found its bioavailability recorded as 35

---

- Run Description: Intrinsic clearance in human liver microsomes measured per mg protein
- Format: ADME, Microsome
Measurement Name: CLH

Past entries and their recorded results:
- Structure String: "O=C(N[C@@H](Cc1coc2ccccc12)B(O)O)[C@@H]1C[C@H]2CC[C@@H]1O2"
  CLH: "< 10 µL/min/mg"
- Structure String: "N#Cc1ccccc1CC(=O)N[C@@H](C[C@@H]1COc2ccccc21)B(O)O"
  CLH: "< 10 µL/min/mg"

Now for another entry.
Looking up `O=C(N[C@@H](Cc1coc2ccccc12)B(O)O)[C@H]1C[C@@H]2CC[C@H]1O2` , I found its CLH recorded as < 10 µL/min/mg

---

- Experimental System: Proteasome subunit beta type-8 (Homo sapiens, UniProt P28062)
- Sequence (P28062 whole entry): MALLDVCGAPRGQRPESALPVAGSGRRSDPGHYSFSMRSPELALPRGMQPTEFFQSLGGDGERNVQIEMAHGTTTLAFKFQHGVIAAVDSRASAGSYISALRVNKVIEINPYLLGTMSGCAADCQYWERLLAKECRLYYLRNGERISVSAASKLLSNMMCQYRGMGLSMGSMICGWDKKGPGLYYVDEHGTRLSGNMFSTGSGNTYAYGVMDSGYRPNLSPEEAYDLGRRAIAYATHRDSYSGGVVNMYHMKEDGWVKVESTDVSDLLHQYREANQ
- Run Description: Inhibition of human 20S immunoproteasome beta-5i subunit using Suc-LLVY-AMC as substrate preincubated for 2 hrs followed by substrate addition and measured after 1 hr by fluorescence intensity assay
Measurement Name: pIC50
The meaning of pIC50 here: minus log10 of the concentration in molar units.

Looking up `O=C(Cc1ccccc1)N[C@@H](Cc1coc2c(Cl)cccc12)B(O)O` , I found its pIC50 recorded as 8.39

Looking up `Cc1ccc(C[C@H](NC(=O)Cc2ccccc2)B(O)O)cc1C` , I found its pIC50 recorded as 7.07

Looking up `O=C(Cc1ncccn1)N[C@@H](Cc1coc2ccccc12)B(O)O` , I found its pIC50 recorded as 8.64

Looking up `O=C(N[C@@H](Cc1coc2ccccc12)B(O)O)[C@H]1C[C@H]2CC[C@@H]1O2` , I found its pIC50 recorded as 6.85

Looking up `Cc1ccc(C[C@@H](NC(=O)Cc2ccccc2)B(O)O)cc1C` , I found its pIC50 recorded as 5.92

Looking up `Cc1c(Cl)ccc2c(C[C@H](NC(=O)Cc3ccccc3)B(O)O)coc12` , I found its pIC50 recorded as 8.19

Looking up `CCc1cccc(C[C@H](NC(=O)[C@H](Cc2ccccc2)NC(=O)c2cnccn2)B(O)O)c1` , I found its pIC50 recorded as 8.77

Looking up `CC(=O)N[C@@H](Cc1coc2ccccc12)B(O)O` , I found its pIC50 recorded as 7.74

Looking up `O=C(Cn1cccn1)N[C@@H](Cc1coc2ccccc12)B(O)O` , I found its pIC50 recorded as 8.43

Looking up `O=C(Cc1cnccn1)N[C@@H](Cc1coc2ccccc12)B(O)O` , I found its pIC50 recorded as 8.72
